Listed below are compounds with Ki for UniProt:O00408, each taken from published literature.
Write it as a number; the unit µM goes unstated.

Please review the following examples before continuing.
compound=CCc1ccc(C(C)(C)n2cc(-c3cc(=O)[nH]c(C)n3)nn2)c(C)c1 measured_on=UniProt:O00408 numeric_result=0.0996
compound="Cc1nc2c([C@@H](C)c3ccc(C(F)(F)F)cc3)nn([C@H](C)CO)c2c(=O)[nH]1 (single isomer, unassigned)" measured_on=UniProt:O00408 numeric_result=0.239
compound=C[C@@H]1CCC[C@H](c2nnc3c(N)nccn23)C1 measured_on=UniProt:O00408 numeric_result=14
compound=Cc1nc(-c2nnc(C(C)(C)c3ccc(C(F)(F)F)cc3F)n2C)cc(=O)[nH]1 measured_on=UniProt:O00408 numeric_result=1.13
compound="Cc1nc(-c2nnn3c2CCCC3(C)c2ccc(C(F)(F)F)cc2F)cc(=O)[nH]1 (single isomer, unassigned)" measured_on=UniProt:O00408 numeric_result=0.0013

Problem: Name the recorded Ki for CC1CCCCC1n1nnc2c(N)ncnc21 (single isomer, unassigned) .
Solution: 10

Problem: Endpoint output: Ki of Cc1nc(-c2nnc3n2CCC[C@H]3c2ccc(C(F)(F)F)cc2)cc(=O)[nH]1 (single isomer, unassigned) . Value?
Solution: 0.0543
